SYSTEM_NAME: T1, cynomolgus SIRP-α D1 domain (cyno2) (cynomolgus monkey, UniProt Q5TFQ8 30-148 (human entry), limits assumed)
T1 chain: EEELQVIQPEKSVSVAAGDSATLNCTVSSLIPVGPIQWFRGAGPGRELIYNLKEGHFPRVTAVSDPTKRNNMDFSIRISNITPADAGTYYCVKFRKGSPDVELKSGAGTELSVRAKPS
ASSAY_INFO: SPR, Langmuir fit
VALUE_KIND: koff (s⁻¹)

binder="S69 (scFv, V domains shown, also called clone 69) VH: DLQLVESGGGVVRPGESLRLSCAASGFTFSSYAMSWVRQAPGKGLEWLAGISAGGSDTYYIDSVKGRFTISRDNSKNSLYLQMNSLTAEDTAVYYCARETWNHLFDYWGLGTLVTVSS VL: ALTQPASVSANPGETVKIICSGGDYYSTYYGWYQQKSPGSAPVTVIHSDDKRPSDIPSRFSGSASGSAATLTITGVRVEDEAVYFCGAYDGRTYINTFGAGTTLTVL" value_kind=koff assay_result=0.000216
binder="S198 (scFv, V domains shown) VH: DVQLVESGGGVVRPGESLRLSCAASGFSFSSHAMNWVRQAPGEGLEWVSRINSGGGGTDYAESVKGRFTISRDNSENTLYLQMNSLRAEDTAVYYCAKQYDWNGFFDYWGLGALVTVSS VL: ETVLTQSPATLSVSPGERATLSCRASQTVGSKLAWHQQKPGQAPRLLIYDATNRATGIPDRFSGSGSGTDFTLTISSLQTEDSAVYYCQQYYYWPPYRFGGGTKVEIK" value_kind=koff assay_result=7.73e-05
binder="S191 (scFv, V domains shown, also called clone 191) VH: DVQLVESGGGVVRPGESLRLSCAASGFSFSSYAMNWVRQAPGEGLEWVSRINSGGGGTDYAESVKGRFTISRDNSENTLYLQMNSLRAEDTAVYYCAKQYDWNGFFDYWGLGALVTVSS VL: ETVLTQSPATLSVSPGERATLSCRASQTVGSKLAWHQQKPGQAPRLLIYDATNRATGIPDRFSGSGSGTDFTLTISGLQTEDSAVYYCQQYYYWPPYRFGGGTKVEIK" value_kind=koff assay_result=1.38e-05
